subject of test: pooled human IgG (human IgG1, 2, 3 and 4)
Enzyme Activity Endpoint Assay (purified): IgG values, listed per item
The reply should contain only the number, in ng/µL.

protein="PRT-549 (protein) MANQEIRYSEDTPSHITSVWTKGVTPPTQFIQNEDVLHAPYIANQGWYDITKTFNGKDDLLCGAATAGNMLHWWFDQNKEQIEAYLKKYPEKQKINFNGEQMFDVKEAIDTKDSQTDSALFNYFKDKAFPYLSTKHLGVFPDHVIDMFINGYRLSLTNHGPTPVKNQTKDPRGGIFDAVFTRGDQSKLLTARHDFKEKTLKEISQLIKQELTEGKALGLSHTYANVRINHVINLWGADFNAEGNLEAIYVTDSDSNASIGMKKYYVGVNAAGKVAISAKEIEGDNIGAQVLGLFTLSTGQDIWQQTNLEHHHHHH" value_units=ng/µL numeric_result=0

Ask | Fill blank: measured Enzyme Activity Endpoint Assay (purified): IgG of the protein PRT-434 (protein) MSQTEDSESLQRLRDIEDFQAEKKKQNVVYTKWLDGVDVKDHDFRKIVDGNIAYYATPLLNGRGFYDINKDFNRDSDKCAAAVAANMFHYWLDRNRDNVDRFLRQNPEKHGIIELPDGQLKLSDFLNTYESDDGYRDKSKLFDFISNNFNGPVWTDKLLDNYINGYAYNYKYGRTIEDPTKNTSKINFFKEVFNEKILTNNHSIRNQNEFSVLLSEALYTGKAIGLSYGPAGLRHGLGHIISVWGADLDADGNVVAIYVTDSDDKKLTIGDERVGLKRYKISTDDEGRLRLTAYEETHNTGGQIRGLWTLDTGKQAWADYFDKTEQTGTDQAEQ is ____.
Reply | 0
